Sourced from paper doi:10.1101/2025.02.11.637513v1

Biological target: human caspase-1 (Homo sapiens)
Sequence (P29466 120-297 limits assumed): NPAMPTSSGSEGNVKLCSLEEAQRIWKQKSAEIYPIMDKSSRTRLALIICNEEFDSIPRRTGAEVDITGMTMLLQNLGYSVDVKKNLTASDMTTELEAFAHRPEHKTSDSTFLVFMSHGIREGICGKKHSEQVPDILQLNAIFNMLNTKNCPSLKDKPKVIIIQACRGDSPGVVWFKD
Sequence (P29466 317-404 limits assumed): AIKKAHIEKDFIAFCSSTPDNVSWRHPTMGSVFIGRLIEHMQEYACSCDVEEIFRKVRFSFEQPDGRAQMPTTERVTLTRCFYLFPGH
Assay: tetrapeptide-ACC substrate cleavage kinetics
Format: biochemical
Details: Ac-P4-P3-P2-Asp-ACC substrate, 0.05-500 μM, 2-15 nM enzyme, 37°C, triplicate
assay-readout: kcat/KM caspase-1

Some substances with recorded kcat/KM caspase-1:
- substance: "Trp-Lys-Gln-Asp"
  kcat/KM caspase-1: "41 600 M^-1s^-1"
- substance: "Tyr-Glu-Lys-Asp"
  kcat/KM caspase-1: "39 500 M^-1s^-1"
- substance: "Asp-Glu-Val-Asp"
  kcat/KM caspase-1: "280 M⁻¹ s⁻¹"

Enter reported kcat/KM caspase-1 observed with human caspase-1 (Homo sapiens) for Val-Trp-His-Asp 7 700 M^-1s^-1

# value lookup — system human caspase-1 (Homo sapiens), readout kcat/KM caspase-1, item Tyr-Gln-Pro-Asp 47 200 M^-1s^-1

Record lookup: for human caspase-1 (Homo sapiens), what kcat/KM caspase-1 belongs to Trp-Glu-His-Asp ? 552 400 M^-1s^-1

* * *

Let's look at some substances and their measured kcat/KM caspase-4.
target: human caspase-4 (Homo sapiens, UniProt P49662); experiment: tetrapeptide-ACC substrate cleavage kinetics; type: biochemical; conditions: Ac-P4-P3-P2-Asp-ACC substrate, 0.05-500 μM, 35-200 nM enzyme, 37°C, triplicate
Sequence (P49662 81-270 limits assumed): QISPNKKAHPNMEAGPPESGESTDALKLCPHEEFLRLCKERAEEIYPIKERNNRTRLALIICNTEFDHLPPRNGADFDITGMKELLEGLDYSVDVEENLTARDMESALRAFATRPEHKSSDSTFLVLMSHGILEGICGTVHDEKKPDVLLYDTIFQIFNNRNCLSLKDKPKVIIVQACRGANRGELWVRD
Sequence (P49662 290-377 limits assumed): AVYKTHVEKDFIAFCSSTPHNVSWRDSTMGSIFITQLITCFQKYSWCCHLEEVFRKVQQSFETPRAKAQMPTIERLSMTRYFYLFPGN
The reply should be a number in M⁻¹ s⁻¹, with the unit left off.

- substance: "Phe-Leu-Thr-Asp"
  kcat/KM caspase-4, M⁻¹ s⁻¹: 450
- substance: "Pro-Met-His-Asp"
  kcat/KM caspase-4, M⁻¹ s⁻¹: 460
- substance: "Val-Gly-His-Asp"
  kcat/KM caspase-4, M⁻¹ s⁻¹: 480
- substance: "Tyr-Gln-Pro-Asp"
  kcat/KM caspase-4, M⁻¹ s⁻¹: 740
- substance: "Tyr-Thr-Ile-Asp"
  kcat/KM caspase-4, M⁻¹ s⁻¹: 510
- substance: "Val-Asp-His-Asp"
  kcat/KM caspase-4, M⁻¹ s⁻¹: 880
- substance: "Asp-Glu-Val-Asp"
  kcat/KM caspase-4, M⁻¹ s⁻¹: 260
- substance: "Phe-Glu-Ala-Asp"
  kcat/KM caspase-4, M⁻¹ s⁻¹: 870

# input substance: Thr-Trp-His-Asp ; wanted: its kcat/KM caspase-4 450

Which measured kcat/KM caspase-4 value corresponds to Tyr-Lys-Met-Asp ? 180

* * *

target: human caspase-8 (Homo sapiens); assay: tetrapeptide-ACC substrate cleavage kinetics; assay type: biochemical; conditions: Ac-P4-P3-P2-Asp-ACC substrate, 0.05-500 μM, 6-42 nM enzyme, 37°C, triplicate
assay-readout: kcat/KM caspase-8

- substance: "Trp-Gln-Val-Asp"
  kcat/KM caspase-8: "3 870 M^-1s^-1"
- substance: "Tyr-Val-His-Asp"
  kcat/KM caspase-8: "2 550 M^-1s^-1"
- substance: "Phe-Leu-Thr-Asp"
  kcat/KM caspase-8: "3 050 M^-1s^-1"
- substance: "Pro-Tyr-His-Asp"
  kcat/KM caspase-8: "4 490 M^-1s^-1"
- substance: "Trp-Glu-His-Asp"
  kcat/KM caspase-8: "14 900 M^-1s^-1"
- substance: "Thr-Trp-His-Asp"
  kcat/KM caspase-8: "1 100 M^-1s^-1"

State its kcat/KM caspase-8 on human caspase-8 (Homo sapiens): Phe-Glu-Ala-Asp 3 890 M^-1s^-1

Lab note: need kcat/KM caspase-8 with human caspase-8 (Homo sapiens) for entry Tyr-Glu-Lys-Asp , please look it up. 2 720 M^-1s^-1

Lab note: need kcat/KM caspase-8 with human caspase-8 (Homo sapiens) for entry Trp-Gln-Pro-Asp , please look it up. 2 480 M^-1s^-1

kcat/KM caspase-8 of Trp-Lys-Gln-Asp on human caspase-8 (Homo sapiens)? 30 M⁻¹ s⁻¹

Fill in the recorded kcat/KM caspase-8 for this substance, with human caspase-8 (Homo sapiens) as test system: Pro-Met-His-Asp 3 570 M^-1s^-1

Kindly state the measured kcat/KM caspase-8 obtained for Val-Gly-His-Asp with human caspase-8 (Homo sapiens). 1 110 M^-1s^-1

Notebook: pull reported kcat/KM caspase-8 for human caspase-8 (Homo sapiens), entry Val-Trp-His-Asp 3 500 M^-1s^-1

So what kcat/KM caspase-8 did Leu-Glu-His-Asp get with human caspase-8 (Homo sapiens)? 186 000 M^-1s^-1

Item Tyr-Lys-Ala-Asp with human caspase-8 (Homo sapiens) - kcat/KM caspase-8? 210 M⁻¹ s⁻¹

What kcat/KM caspase-8 appears in the records for this substance with human caspase-8 (Homo sapiens)? Tyr-Thr-Ile-Asp 3 260 M^-1s^-1

API: value(readout= kcat/KM caspase-8, system= human caspase-8 (Homo sapiens), query= Ile-Glu-Thr-Asp ) 95 400 M^-1s^-1

State its kcat/KM caspase-8 on human caspase-8 (Homo sapiens): Val-Asp-His-Asp 16 670 M^-1s^-1

* * *

target: human caspase-7 (Homo sapiens); experiment: tetrapeptide-ACC substrate cleavage kinetics; format: biochemical; settings: Ac-P4-P3-P2-Asp-ACC substrate, 0.05-500 μM, 40-400 nM enzyme, 37°C, triplicate
Sequence (P55210 24-198 limits assumed): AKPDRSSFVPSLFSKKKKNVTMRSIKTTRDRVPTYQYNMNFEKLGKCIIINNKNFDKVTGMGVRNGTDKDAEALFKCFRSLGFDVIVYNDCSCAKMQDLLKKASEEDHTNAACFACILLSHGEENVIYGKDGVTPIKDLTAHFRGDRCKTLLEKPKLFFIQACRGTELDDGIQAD
Sequence (P55210 207-303 limits assumed): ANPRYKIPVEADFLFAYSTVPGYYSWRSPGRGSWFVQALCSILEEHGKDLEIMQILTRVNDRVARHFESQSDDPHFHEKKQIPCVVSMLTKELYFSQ
assay-readout: kcat/KM caspase-7 (M⁻¹ s⁻¹)
Give the value, in units of M⁻¹ s⁻¹, as a plain number.

Need kcat/KM caspase-7, item Leu-Glu-His-Asp 730

Bench note: what kcat/KM caspase-7 did Val-Gly-His-Asp show? 90

Entry Thr-Trp-His-Asp has what kcat/KM caspase-7? 710

* * *

Overview of recorded kcat/KM caspase-8 for various substances
target: human caspase-8 (Homo sapiens, UniProt Q14790); assay: tetrapeptide-ACC substrate cleavage kinetics; assay type: biochemical; conditions: Ac-P4-P3-P2-Asp-ACC substrate, 0.05-500 μM, 6-42 nM enzyme, 37°C, triplicate
Sequence (Q14790 217-374 limits assumed): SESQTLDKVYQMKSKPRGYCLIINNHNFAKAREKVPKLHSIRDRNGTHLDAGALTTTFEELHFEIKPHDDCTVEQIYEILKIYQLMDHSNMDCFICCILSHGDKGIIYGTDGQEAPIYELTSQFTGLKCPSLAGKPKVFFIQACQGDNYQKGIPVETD
Sequence (Q14790 385-479 limits assumed): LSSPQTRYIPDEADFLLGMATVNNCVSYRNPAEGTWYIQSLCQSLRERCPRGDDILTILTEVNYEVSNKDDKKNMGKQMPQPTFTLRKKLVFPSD

Here are 3 substances together with their reported answers.
- substance: "Tyr-Lys-Met-Asp"
  assay-readout: "kcat/KM caspase-8"
  result: "210 M⁻¹ s⁻¹"
- substance: "Asp-Glu-Val-Asp"
  assay-readout: "kcat/KM caspase-8"
  result: "73 200 M^-1s^-1"
- substance: "Tyr-Gln-Pro-Asp"
  assay-readout: "kcat/KM caspase-8"
  result: "2 170 M^-1s^-1"

--- query ---
What value of kcat/KM caspase-8 on human caspase-8 (Homo sapiens, UniProt Q14790) does Leu-Glu-Ser-Asp have? 19 200 M^-1s^-1

* * *

biological target: human caspase-3 (Homo sapiens); experiment: tetrapeptide-ACC substrate cleavage kinetics; type: biochemical; details: Ac-P4-P3-P2-Asp-ACC substrate, 0.05-500 μM, 3-35 nM enzyme, 37°C, triplicate
assay-readout: kcat/KM caspase-3

- substance: "Tyr-Lys-Ala-Asp"
  kcat/KM caspase-3: "< 10 M⁻¹ s⁻¹"

Which kcat/KM caspase-3 value is on record for Trp-Lys-Gln-Asp ? < 10 M⁻¹ s⁻¹

Quick check: kcat/KM caspase-3 of Val-Trp-His-Asp ? 9 980 M^-1s^-1

* * *

target: human caspase-4 (Homo sapiens, UniProt P49662); assay: tetrapeptide-ACC substrate cleavage kinetics; assay type: biochemical; details: Ac-P4-P3-P2-Asp-ACC substrate, 0.05-500 μM, 35-200 nM enzyme, 37°C, triplicate
Overview of recorded kcat/KM caspase-4 for various substances

Study these solved cases before continuing.
- substance: "Ile-Glu-Thr-Asp"
  result: "1 010 M^-1s^-1"
- substance: "Trp-Glu-His-Asp"
  result: "18 000 M^-1s^-1"
- substance: "Pro-Tyr-His-Asp"
  result: "330 M⁻¹ s⁻¹"

Sample Leu-Glu-Ser-Asp — what was its kcat/KM caspase-4? 3 390 M^-1s^-1

* * *

molecular target: human caspase-3 (Homo sapiens, UniProt P42574); assay: tetrapeptide-ACC substrate cleavage kinetics; type: biochemical; conditions: Ac-P4-P3-P2-Asp-ACC substrate, 0.05-500 μM, 3-35 nM enzyme, 37°C, triplicate
Sequence (P42574 29-175 limits assumed): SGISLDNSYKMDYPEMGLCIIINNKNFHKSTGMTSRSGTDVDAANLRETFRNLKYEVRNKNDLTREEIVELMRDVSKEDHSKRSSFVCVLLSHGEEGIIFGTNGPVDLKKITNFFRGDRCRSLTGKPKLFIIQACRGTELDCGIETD
Sequence (P42574 176-277 limits assumed): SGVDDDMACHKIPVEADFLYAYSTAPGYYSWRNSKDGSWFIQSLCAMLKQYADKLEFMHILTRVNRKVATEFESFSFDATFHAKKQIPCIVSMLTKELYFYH
Reported values of kcat/KM caspase-3 for individual entries

Below: 2 substances and their reported kcat/KM caspase-3.
- substance: "Trp-Gln-Val-Asp"
  kcat/KM caspase-3: "12 140 M^-1s^-1"
- substance: "Trp-Gln-Pro-Asp"
  kcat/KM caspase-3: "1 410 M^-1s^-1"

Please examine the following record next.
Reported kcat/KM caspase-3 for human caspase-3 (Homo sapiens, UniProt P42574), given Leu-Glu-His-Asp ? 12 600 M^-1s^-1
